B1: KCNA1 (parent)
chain: LKASMRELGLLIFFLFIGVILFSS

# Variants of: B1
# ASSAY PROTOCOL: protein stability index of a GFP-peptide fusion (GPS, HEK-293T) (PSI 1-6); higher = more stable;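 note: lentivirally expressed fusions sorted by FACS into six bins by GFP to DsRed ratio, PSI derived from sequencing read proportions per bin multiplied by bin number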
# ASSAY SETUP: c terminus: a fixed tail appended
The variants listed here are annotated with their protein stability index.
Respond numerically, and do not add a unit to the figure.

POLYMER SEQUENCE	protein stability index
KKASMRELGLLIFFLFIGVILFSS [L1K]	1.58
LKAQMRELGLLIFFLFIGVILFSS [S4Q]	2.55

I am curious: what protein stability index value has been reported for LKASGRELGLLIFFLFIGVILFSS [M5G] ? 1.28
